Measured koff of individual entries
- ASSAY TARGET: T1, Human Tau 2N4R, wild type, recombinant full length (human, UniProt P10636 2-758)
- T1 construct: Full length 2N4R isoform; monomer in SPR and ELISA; heparin-induced aggregates or seeds in the functional assays; also called Tau441; Tau-441
- T1 sequence (P10636 other isoform, or with tags, fused parts or gaps limits assumed): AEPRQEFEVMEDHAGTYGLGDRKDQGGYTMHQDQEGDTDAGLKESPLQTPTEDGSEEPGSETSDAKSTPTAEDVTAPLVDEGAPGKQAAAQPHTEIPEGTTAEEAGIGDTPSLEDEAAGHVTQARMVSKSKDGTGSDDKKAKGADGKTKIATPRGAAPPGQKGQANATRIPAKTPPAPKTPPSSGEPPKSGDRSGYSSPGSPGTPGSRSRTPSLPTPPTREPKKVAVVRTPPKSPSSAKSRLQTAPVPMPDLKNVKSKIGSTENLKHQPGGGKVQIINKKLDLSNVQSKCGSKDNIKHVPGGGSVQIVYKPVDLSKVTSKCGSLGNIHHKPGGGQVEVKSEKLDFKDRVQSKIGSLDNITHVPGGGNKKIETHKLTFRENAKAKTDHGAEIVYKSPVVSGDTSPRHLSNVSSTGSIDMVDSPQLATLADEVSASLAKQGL
- ASSAY TEXT: SPR BIAcore, mAb captured by anti-human IgG, Tau flowed, 1:1 Langmuir
Report only the number, with the unit s⁻¹ understood.

These solved cases illustrate the format of a correct answer.
BINDER	QUANTITY	UNIT TEXT	MEASURED RESULT
7G6-HCzu3-LCzu2 (antibody, human IgG1, kappa, V domains shown, humanized, human IgG1 kappa) VH: QVQLVQSGAEVKKPGASVKVSCKASGYTFTTYWITWVRQAPGQGLEWMGDIYPGSSICNYNEKFKSRVTMTVDTSTSTAYMELSSLRSEDTAVYYCAREDGYDAWFAYWGQGTLVTVSS VL: DVVMTQSPLSLPVTLGQPASISCRSSQSILHSNGNTYLEWYQQRPGQSPRLLICKVSNRFSGVPDRFSGSGSGTDFTLKISRVEAEDVGVYYCFQGSHVPFTFGQGTKLEIKR	koff	s⁻¹	0.000242
7G6-HCzu4-LCzu1 (antibody, human IgG1, kappa, V domains shown, humanized, human IgG1 kappa) VH: QVQLVQSGAEVKKPGASVKVSCKASGYTFTTYWITWVRQAPGQGLEWMGDIYPGSSICNYAQKFQGRVTMTVDTSTSTAYMELSSLRSEDTAVYYCAREDGYDAWFAYWGQGTLVTVSS VL: DVVMTQSPLSLPVTLGQPASISCRSSQSILHSNGNTYLEWFQQRPGQSPRRLIYKVSNRFSGVPDRFSGSGSGTDFTLKISRVEAEDVGVYYCFQGSHVPFTFGQGTKLEIKR	koff	s⁻¹	0.000847
7G6-HCzu1-LCzu2 (antibody, human IgG1, kappa, V domains shown, humanized, human IgG1 kappa) VH: QVQLVQSGAEVKKPGASVKVSCKASGYTFTTYWITWVRQAPGQGLEWMGDIYPGSSICNYNEKFKSRVTMTRDTSTSTVYMELSSLRSEDTAVYYCAREDGYDAWFAYWGQGTLVTVSS VL: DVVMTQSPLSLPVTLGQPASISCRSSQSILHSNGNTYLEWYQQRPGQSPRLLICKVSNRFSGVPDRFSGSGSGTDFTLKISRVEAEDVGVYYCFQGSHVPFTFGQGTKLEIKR	koff	s⁻¹	0.000241
7G6-HCzu5-LCzu22 (antibody, human IgG1, kappa, V domains shown, humanized, human IgG1 kappa; also called 7G6-LCzu22) VH: QVQLVQSGAEVKKPGASVKVSCKASGYTFTTYWITWVRQAPGQGLEWMGDIYPGSSISNYNEKFKSRVTMTVDTSTSTAYMELSSLRSEDTAVYYCAREDGYDAWFAYWGQGTLVTVSS VL: DVVMTQSPLSLPVTLGQPASISCRSSQSILHSNGNTYLEWYQQRPGQSPRRLISKVSNRFSGVPDRFSGSGSGTDFTLKISRVEAEDVGVYYCFQGSHVPFTFGQGTKLEIKR	koff	s⁻¹	0.00277

Now let's try a different one.
Request: Quick check: koff of 7G6-HCzu5-LCzu8 (antibody, human IgG1, kappa, V domains shown, humanized, human IgG1 kappa) VH: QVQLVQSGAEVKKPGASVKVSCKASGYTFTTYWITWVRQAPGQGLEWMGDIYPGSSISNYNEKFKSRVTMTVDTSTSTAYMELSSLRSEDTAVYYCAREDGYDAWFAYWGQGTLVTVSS VL: DVVMTQSPLSLPVTLGQPASISCRSSQSIVHSNGNTYLEWFQQRPGQSPRRLISKVSNRFSGVPDRFSGSGSGTDFTLKISRVEAEDVGVYYCFQGSHVPFTFGQGTKLEIKR ?
Response: 0.000298
